Tested on: RPMI-8226 leukemia
Experiment: NCI-60 one-dose screen, 48 h (100 = growth as untreated, 0 = no growth, -100 = all killed)
Conditions: 10 µM unless noted
The panel holds about 83,000 compounds, 20% with a hit somewhere; the sample as a whole holds those more often.
Please respond with reported growth for every item in the list.
Please reply with the bare figure in % and do not write the unit itself.

Ask | Name the recorded growth for NS(=O)(=O)c1ccc(N2N=C(c3cccs3)CC2c2ccccc2O)cc1 (centres undefined) .
Reply | 7.41

Ask | Record request: growth value, item C#CC[C@@H]1C[C@]2(C)[C@H]3CC[C@@H]4[C@H]5C(C(=C)C)CC[C@]5(C(=O)NCCCN5CCN(CCCN)CC5)CC[C@@]4(C)[C@]3(C)CC[C@H]2C(C)(C)[C@H]1OC(C)=O (some centres undefined)
Reply | -48.5

Ask | Find the recorded growth belonging to `O=[N+]([O-])c1cccc([I+]c2ccccc2)c1` and report it.
Reply | 27.9

Ask | // query growth value for entry `COc1ccc(-c2nn(-c3cccc(Cl)c3)cc2/C=C2\C(=N)N(c3ccccc3)N=C2N)cc1`
Reply | 47.3

Ask | # input molecule: `CN(C)CCOc1nc2c3ccncc3cc(-c3cccc(Cl)c3)c2c2cnccc12` ; wanted: its growth
Reply | 9

Ask | I'd like to know its growth. The molecule in question is `CCOc1ccc([C@@H]2[C@@H](Oc3ccccc3)C(=O)N2c2cc(OC)c(OC)c(OC)c2)cc1`
Reply | 5.16

Ask | Report growth for `COc1cc(-c2nc(-c3nc4cc(C(=O)c5ccccc5)ccc4[nH]3)cc3c2[nH]c2ccccc23)cc(OC)c1OC` please.
Reply | 42

Ask | Entry `Nc1cccc(S(=O)(=O)c2cccc(N)c2)c1` has what growth?
Reply | 110

Ask | Form field: reported growth of `CC(C)NC(=O)OCC#CCOC(=O)NC(C)C`
Reply | 103

* * *

System: NCI-H522 lung
Test: NCI-60 one-dose screen, 48 h (100 = growth as untreated, 0 = no growth, -100 = all killed)
Conditions: 10 µM unless noted
Compounds without any hit were thinned out: in the full panel of roughly 83,000, 20% have a hit.
VALUE KIND: growth (%)
Express your answer in %, writing the number without its unit.

Ask | Query (molecule): `COc1ccc(/C(=C\c2cc(OC)c(OC)c(OC)c2)C(=O)Nc2nc3ccc(Cl)cc3s2)cc1` ; field requested: growth
Reply | 74.9

Ask | Could you tell me which growth is on file for C/C=C(\C)C(C(=O)NC1CCCCC1)N(C(=O)C1CCc2cc(F)ccc2O1)c1ccc([N+](=O)[O-])cc1 (stereo not given) ?
Reply | 81.9

Ask | # input molecule: `CCOC(=O)C(Nc1ccccc1)C(=O)OCC` ; wanted: its growth
Reply | 102

Ask | Looking for the measured growth of CO[C@@]12[C@@H]3NC3CN1C1=C(C(=O)C(N)=C(C)C1=O)[C@@H]2COC(N)=O (stereo not given in full) , can you help?
Reply | -9.07

Ask | State the recorded growth for this entry: `N=C(N)c1ccc(-c2ccc(-c3cc(Cl)cc(Cl)c3)o2)nc1`
Reply | -67.4

Ask | Field request: growth | item: `c1ccc(C(Nc2ccccn2)(c2ccccc2)c2ccccc2)cc1`
Reply | 70.7

Ask | Quick one: growth of COc1ccc(NC(=O)C2c3ccccc3C(=O)N(CC(C)C)C2c2cccs2)cc1 (stereo not given) ?
Reply | 92.3

Ask | growth for `COc1ccc(Nc2ncccc2C(=O)NCc2cn(Cc3cc(OC)cc(OC)c3)nn2)cc1` ?
Reply | 79.4

Ask | Endpoint output: growth of `Nc1cc2nc3ccccc3oc-2cc1=O` . Value?
Reply | -16.5

Ask | Data request, read-out growth, for `Cc1cccc(C(=O)O)n1`
Reply | 90.8

* * *

Exercise: for every item that follows, state its recorded growth.
Tested on: ACHN renal
Test: NCI-60 one-dose screen, 48 h (100 = growth as untreated, 0 = no growth, -100 = all killed)
Conditions: 10 µM unless noted
This is part of a sample that, as a whole, favours compounds with a hit. Of some 83,000 tested, about 20% had one in any assay.
Just the number please, in %, no unit attached.

Ask | Enter reported growth observed with ACHN renal for `COc1cc2nccc(Oc3ccc(NC(=O)C4(C(=O)Nc5ccc(F)cc5)CC4)cc3)c2cc1OC(=O)c1ccc(N)cc1`
Reply | 39.5

Ask | Checklist item: growth tested on ACHN renal, entry `COc1c(B(O)O)cccc1-c1nc2ccc3[nH]ncc3c2c2c1CCCC2` , value?
Reply | 3.93

Ask | Lab note: need growth with ACHN renal for entry `Cc1ccc2cc3c(NC(=O)c4cccnc4)nn(C)c3nc2c1` , please look it up.
Reply | 89

Ask | Quick check: growth on ACHN renal, item `COc1ccccc1NC(=O)OCC12COCN1COC2` ?
Reply | 102

Ask | Find growth (ACHN renal) for the entry `[Ag].[Ag].[NH-]S(=O)(=O)c1ccc(N=Nc2cc(N=Nc3ccc(S([NH-])(=O)=O)cc3)c3c(NC(=O)C(Cl)Cl)cccc3c2OC(=O)C(Cl)Cl)cc1.[c-]1nccs1.[c-]1nccs1`
Reply | 52.3

Ask | Hi! What's the reported growth for `CCN(CC)c1ccc2nc3c4ccccc4c(=O)cc-3n(-c3ccccc3)c2c1` on ACHN renal?
Reply | -1

Ask | Short answer please: growth, ACHN renal, entry `CNC(=O)c1cc(Oc2ccc(NC(=O)c3[nH]c(SC)nc3-c3ccc(F)cc3)cc2)ccn1`
Reply | 39.8

Ask | Short answer please: growth, ACHN renal, entry `CN(C)c1ccc(N2Cc3ccccc3OC3=C2C(=O)c2c(O)ccc(O)c2C3=O)cn1`
Reply | -100

Ask | Checklist item: growth tested on ACHN renal, entry `COc1ccc2[nH]c(O)c(/C=c3/ccc4c(c3)N=C(c3ccc(C(F)(F)F)cc3)N=4)c2c1` , value?
Reply | 78

Ask | Please state recorded growth (tested on ACHN renal) of `COc1cc(/C=C/C(=O)c2c(C)nc3ccccc3c2C)ccc1OCCCOc1cc2c(cc1OC)C(=O)N1CCC[C@H]1C=N2`
Reply | -41.2

Ask | Which measured growth belongs to `SCc1ccc(CS)cc1` , tested on ACHN renal?
Reply | 102

Ask | Lookup: growth / ACHN renal / `O=C(CN1CCN(c2ccccc2)CC1)N1CCN(c2nnc(-c3ccc(Cl)cc3)c(-c3ccc(Cl)cc3)n2)CC1`
Reply | 53.6

Ask | Lab request: please report growth under test system ACHN renal for `Oc1ccc(-c2cnc(-c3ccccc3)[nH]2)c(O)c1`
Reply | 109

Ask | Form entry - test system: ACHN renal; read-out: growth; compound: O=C(Nc1ccccc1)C(CCCCN1C(=O)c2ccccc2C1=O)N1C(=O)c2ccccc2C1=O (centres undefined)
Reply | 103

Ask | Any idea what growth came out for `CCCCCCCCCCCCCCCCOc1ccc(S(=O)(=O)N(C)C)cc1[N+](=O)[O-]` on ACHN renal?
Reply | 93.5

Ask | Field: growth (ACHN renal). Entry: C#CC[C@@H]1C[C@]2(C)[C@H]3CC[C@@H]4[C@H]5C(C(=C)C)CC[C@]5(C(=O)NCCCN5CCN(CCCN)CC5)CC[C@@]4(C)[C@]3(C)CC[C@H]2C(C)(C)[C@H]1OC(C)=O (some centres undefined)
Reply | -97.8

Ask | Test system ACHN renal; read-out growth; what value for `Cc1nc2ccc(Nc3nc(N4CCOCC4)nc(N4CCN(C)CC4)n3)cc2n1Cc1ccccc1` ?
Reply | 94.7

Ask | Record lookup: for ACHN renal, what growth belongs to CCCCCCCCCCC(C(O)c1ccccc1)N1CCCCC1 (centres undefined) ?
Reply | 42.1

Ask | Find the measured growth: item `O=C(Nc1ccccc1Cl)Oc1ccc2ccccc2c1` , target or system ACHN renal.
Reply | 98.3

Ask | Under ACHN renal: growth value of `CCCCN(CCCC)CCC(=O)c1ccc(OC)c2ccccc12` ?
Reply | 92.3

Ask | API: value(readout=growth, system=ACHN renal) for record CSC1=NC(=Nc2c(C)cccc2C)C2(CCC(C(C)(C)C)CC2)N1c1ccc(Cl)cc1 (centres undefined)
Reply | 34.5

Ask | Give growth (ACHN renal) of the following compound: CNCc1cccc2c1OCCOCCOCCC(C)S(=O)(=O)c1ccc(cc1)-c1cnc(N)c(n1)C(=O)N2 (centres undefined)
Reply | 18.9

Ask | Quick check: growth on ACHN renal, item COC(=O)C(C)NC1=C(Cl)C(=O)C(NC(C)C(=O)OC)=C(Cl)C1=O (centres undefined) ?
Reply | 106

Ask | Under ACHN renal: growth value of `COc1ccc(-c2nn(-c3cccc(Cl)c3)cc2/C=C2\C(=N)N(c3ccccc3)N=C2N)cc1` ?
Reply | 20.7

Ask | Identify the measured growth of COc1ccc2c(c1)N(CCO)C1=C(C(=O)OC1)C2c1cccc(Br)c1 (centres undefined) for ACHN renal.
Reply | 28.4

Ask | Param readout= growth; system= ACHN renal; entry= `CCOC(=O)c1c(NC(=O)c2ccccc2)sc2c(O)c(CN(CC)CC)ccc12` ; returns value.
Reply | 29.5

Ask | Form: Entry = `O=C(Nc1cnc(C(F)(F)F)cn1)c1cc(Cl)ccc1O` | System = ACHN renal | growth = ____
Reply | 3.85

Ask | Give ACHN renal growth for `O=C(c1ccccc1)N(CCCCl)C(=O)N(CCCCl)C(=O)c1ccccc1`
Reply | 90.9

Ask | What reported growth corresponds to `Cc1nc([C@H]2CC[C@H]3[C@@H]4CCC5=CC(=O)CC[C@]5(C)[C@H]4CC[C@]23C)cs1` on ACHN renal?
Reply | 68.6

Ask | Form field: growth recorded for `C/C(=N\NC(=S)N1CCCCC1)c1ccccn1` with ACHN renal (enter value)
Reply | 17.3

Ask | Fill in the recorded growth for this compound, with ACHN renal as test system: CC(COC(=O)c1ccccc1)N1CC2CCC(C1)O2 (centres undefined)
Reply | 104

Ask | Give recorded growth with ACHN renal for the following compound: `O=C(OCc1ccc2c(Br)cc(Br)c(O)c2n1)c1cc2ccccc2[nH]1`
Reply | -100

Ask | Any idea what growth came out for `CC(=O)c1cc(C(=O)c2ccc3c(c2)Sc2ccccc2N3)c2c(C)cccn12` on ACHN renal?
Reply | 32.4

Ask | Item: CCOC(C)(c1ccc(Cl)cc1)C1CCNCC1 (centres undefined) Test system: ACHN renal Read-out: growth Value: ?
Reply | 98.4

Ask | Give the reported growth for `CCOC(=O)c1ccc(NC(=O)NC2=NCCS2)cc1` (system: ACHN renal).
Reply | 78.9

Ask | Reported growth for ACHN renal, given `Fc1ccc(-c2nnc(N3CCOCC3)c3ccccc23)cc1` ?
Reply | 103

Ask | Missing value: growth, ACHN renal, entry `COc1ccc2[nH]c(O)c(/C=c3/ccc4c(c3)N=C(c3ccc(F)cc3)N=4)c2c1` . Fill in?
Reply | 31.2

Ask | Request body: readout growth, system ACHN renal, query CCC(=O)NC(O)C(Cl)(Cl)C(C)Cl (centres undefined) . Return the value.
Reply | 100

Ask | For ACHN renal, provide growth of CC1(C)C(N(O)C(=O)Nc2ccc(Cl)cc2)N(c2ccc(Cl)cc2)C(=O)N1CC(=O)N/N=C/C=C/c1ccc([N+](=O)[O-])o1 (centres undefined) please.
Reply | 9.18
